Just for reference, ChEMBL document CHEMBL5380821 is where these values come from.

biological target: Syntenin-1/Syndecan-2 (Homo sapiens, UniProt O00560); test: Inhibition of full length N-terminal GST-tagged human syntenin-1 expressed in Escherichia coli ER2566/syndecan2 (unknown origin) interaction incubated for 16 hrs by HTRF assay
Sequence (O00560 whole entry): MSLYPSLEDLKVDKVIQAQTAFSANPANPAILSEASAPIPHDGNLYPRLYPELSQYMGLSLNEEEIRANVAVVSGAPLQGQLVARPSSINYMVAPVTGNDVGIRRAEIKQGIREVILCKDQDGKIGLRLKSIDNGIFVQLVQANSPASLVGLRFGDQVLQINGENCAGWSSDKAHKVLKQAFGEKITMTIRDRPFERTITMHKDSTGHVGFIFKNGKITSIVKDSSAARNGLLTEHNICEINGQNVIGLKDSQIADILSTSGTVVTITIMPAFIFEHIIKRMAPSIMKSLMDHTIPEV
Sequence (P34741 whole entry, further chain): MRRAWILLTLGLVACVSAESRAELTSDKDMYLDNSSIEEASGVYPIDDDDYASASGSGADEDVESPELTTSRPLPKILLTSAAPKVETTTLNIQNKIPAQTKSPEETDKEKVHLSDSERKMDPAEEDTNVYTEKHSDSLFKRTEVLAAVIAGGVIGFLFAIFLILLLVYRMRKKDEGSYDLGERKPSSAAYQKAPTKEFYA
MEASUREMENT_NAME: IC50

These recorded examples may help you get a feel for the data.
1. CC(C)C[C@H](NC(=O)[C@H](Cc1ccccc1)N1Cc2ccccc2C1=O)C(=O)O | > 500 µM
2. CC[C@H](C)[C@H](NC(=O)[C@H](CC(C)C)N1Cc2ccccc2C1=O)C(=O)O | > 500 µM

Alright, here's another compound for you.
Value of measured IC50 for the entry "CC(=O)Nc1ccc(-c2ccc(C[C@@H](C(=O)N[C@@H](C)C(=O)O)N3Cc4cc(Br)ccc4C3=O)cc2)cc1" : 0.82 µM

---

target: Syntenin-1/Syndecan-2 (Homo sapiens, UniProt O00560); test: Inhibition of full length N-terminal GST-tagged human syntenin-1 expressed in Escherichia coli ER2566/syndecan2 (unknown origin) interaction incubated for 16 hrs by HTRF assay
pIC50: −log10 of the molar value.
MEASUREMENT_NAME: pIC50

Reference set (4 entries):
1) C[C@H](NC(=O)[C@H](Cc1ccc(C#N)cc1)N1Cc2ccccc2C1=O)C(=O)O | 3.74
2) C[C@H](NC(=O)[C@H](Cc1ccc(Br)cc1)N1Cc2ccccc2C1=O)C(=O)O | 4.46
3) C[C@H](NC(=O)[C@H](Cc1ccc(-c2cc(CO)ccc2F)cc1)N1Cc2cc(Br)ccc2C1=O)C(=O)O | 5.82
4) COc1ccc(C[C@@H](C(=O)N[C@@H](C)C(=O)O)N2Cc3ccccc3C2=O)cc1 | 3.89

A = C[C@H](NC(=O)[C@H](Cc1ccc(-c2cc(CO)ccc2F)cc1)N1Cc2ccccc2C1=O)C(=O)O
B = C[C@H](NC(=O)[C@H](Cc1c[nH]c2ccccc12)N1Cc2ccccc2C1=O)C(=O)O
Ask | Identify the entry with the larger pIC50. Options: A and B Identify your selection by its label.
Reply | A
(A: 5.28, B: 4.48)

a = C[C@H](NC(=O)[C@H](Cc1ccc(O)cc1)N1Cc2ccccc2C1=O)C(=O)O
b = CC(=O)Nc1ccc(-c2ccc(C[C@@H](C(=O)N[C@@H](C)C(=O)O)N3Cc4ccccc4C3=O)cc2)cc1
c = CC(=O)c1ccc(F)c(-c2ccc(C[C@@H](C(=O)N[C@@H](C)C(=O)O)N3Cc4ccccc4C3=O)cc2)c1
Ask | Rank descending by pIC50. Lab note: final answer is the ordered label list.
Reply | c, b, a

1 = C[C@H](NC(=O)[C@H](Cc1ccccc1)N1Cc2ccccc2C1=O)C(=O)O
2 = C[C@H](NC(=O)[C@H](Cc1ccc(-c2ccccc2F)cc1)N1Cc2ccccc2C1=O)C(=O)O
3 = C[C@H](NC(=O)[C@H](Cc1ccc2ccccc2c1)N1Cc2cc(Br)ccc2C1=O)C(=O)O
4 = CC(C)[C@@H](C(=O)N[C@@H](C)C(=O)O)N1Cc2cc(Br)ccc2C1=O
5 = CC(=O)c1ccc(F)c(-c2ccc(C[C@@H](C(=O)N[C@@H](C)C(=O)O)N3Cc4cc(Br)ccc4C3=O)cc2)c1
Ask | Put the compounds in ascending order of pIC50. Would you mind listing the labels in the order requested?
Reply | 1, 4, 2, 3, 5

P = COc1ccc(F)c(-c2ccc(C[C@@H](C(=O)N[C@@H](C)C(=O)O)N3Cc4ccccc4C3=O)cc2)c1
Q = C[C@H](NC(=O)[C@H](Cc1ccc(-c2ccc3c(c2)C(=O)N(C)C3)cc1)N1Cc2ccccc2C1=O)C(=O)O
Ask | Pick one: P or Q . Which one has the lower reported pIC50? // caller expects the label of the chosen entry
Reply | P
(P: 5.00, Q: 5.20)

---

target: Syntenin-1/Syndecan-2 (Homo sapiens); assay: Inhibition of full length N-terminal GST-tagged human syntenin-1 expressed in Escherichia coli ER2566/syndecan2 (unknown origin) interaction incubated for 16 hrs by HTRF assay
MEASUREMENT_NAME: IC50

Would you please look over these solved cases?
1) C[C@H](NC(=O)[C@H](Cc1ccc2ccccc2c1)N1Cc2ccccc2C1=O)C(=O)O | 13 µM
2) CC(C)[C@@H](C(=O)N[C@@H](C)C(=O)O)N1Cc2cc(Cl)ccc2C1=O | 14 µM
3) CC(C)[C@H](NC(=O)[C@H](Cc1ccccc1)N1Cc2ccccc2C1=O)C(=O)O | > 500 µM

"CC(C)C[C@@H](C(=O)N[C@@H](Cc1ccccc1)C(=O)O)N1Cc2ccccc2C1=O" yielded IC50 of > 500 µM

Consider "O=C(O)[C@H](Cc1ccccc1)NC(=O)[C@H](Cc1ccccc1)N1Cc2ccccc2C1=O" . Its measured IC50 is > 500 µM

Reported IC50 ( "CC(C)C[C@H](NC(=O)[C@H](C(C)C)N1Cc2ccccc2C1=O)C(=O)O" ) = > 500 µM

# IC50 of "CC(C)[C@@H](C(=O)N[C@@H](C)C(=O)O)N1Cc2ccc(Br)cc2C1=O" = > 200 µM

---

biological target: Syntenin-1/Syndecan-2 (Homo sapiens); experiment: Inhibition of full length N-terminal GST-tagged human syntenin-1 expressed in Escherichia coli ER2566/syndecan2 (unknown origin) interaction incubated for 16 hrs by HTRF assay
Let's look at some compounds and their measured IC50.

Record excerpt, results attached:
1. CC[C@H](C)[C@H](NC(=O)[C@H](C(C)C)N1Cc2ccccc2C1=O)C(=O)O | > 500 µM
2. CC(C)C[C@H](NC(=O)[C@H](CC(C)C)N1Cc2ccccc2C1=O)C(=O)O | > 500 µM
3. CC[C@H](C)[C@H](NC(=O)[C@H](Cc1ccccc1)N1Cc2ccccc2C1=O)C(=O)O | > 500 µM
4. Cc1ccc(C[C@@H](C(=O)N[C@@H](C)C(=O)O)N2Cc3ccccc3C2=O)cc1 | > 200 µM

Below: the item to evaluate.
According to the records, this compound "CC(C)[C@@H](C(=O)N[C@@H](C)C(=O)O)N1Cc2c(Cl)cccc2C1=O" displays IC50 of > 200 µM
